meta.source: the supplement of paper PMC10567573

B1: EPB41L3 (parent)
chain: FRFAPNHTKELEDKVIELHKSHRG

- Variants of: B1
- procedure-text: protein stability index of a GFP-peptide fusion (GPS, HEK-293T) (PSI 1-6); higher = more stable;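 also: lentivirally expressed fusions sorted by FACS into six bins by GFP to DsRed ratio, PSI derived from sequencing read proportions per bin multiplied by bin number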
- experimental-conditions: c terminus: a fixed tail appended
Overview of recorded protein stability index for various variants
Output: the number by itself.

The cases that follow already have their protein stability index on record.
construct-sequence | protein stability index
ARFAPNHTKELEDKVIELHKSHRG | 4.17
FRFAPNHTKELEDKVIENHKSHRG | 2.01
FRFAPNDTKELEDKVIELHKSHRG | 2.96

Query: Could you tell me which protein stability index is on file for `FRFAPNHTKELEDKVIELHKSPRG` ?
Reply: 2.17

Query: Look up protein stability index: `FRFAPNHTFELEDKVIELHKSHRG`
Reply: 2.14
